# Target System: T1, Nbp2, Q12163
# T1 sequence (Q12163 103-180, looked up): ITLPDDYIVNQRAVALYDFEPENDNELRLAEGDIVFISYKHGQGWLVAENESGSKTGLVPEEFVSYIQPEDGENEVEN
# Protocol Text: SPOT array
# Assay Context: median of control spots 357
Measured Endpoint: SPOT intensity

(1) VQPTAAPATPPRHIS
(2) AGKRRLPLVRFKASD
Pick the one with the larger SPOT intensity: 1 vs 2 Selection: enter the item's label.
2
(2: 125, 1: 0)

(a) SLSRRRFSLPSMPNV
(b) TKIRRRPQQPLTDFT
(c) TEVPIPRRPPPPQAA
(d) AKDLIVPRRPEWNEG
// ascending sort on recorded SPOT intensity Answer format: list of labels, ordered as asked.
c, b, a, d
(c: 0, b: 2, a: 34, d: 1390)
